- system: human RXFP1 (Homo sapiens)
- Construct: expressed in transfected cells
- measurementProtocol: RXFP1 cAMP assay (hRXFP1 HEK293 cAMP assay, HTRF)
- Format: cell-based
- conditionsUsed: HEK293 cells stably expressing human RXFP1, 30 min at room temperature, read-out: cAMP hRXFP1 HEK293 Assay EC50
EC50 under 4 nM gets y, anything at or over 4 nM gets n.

1) COc1c(F)cc(C2=NOC3CC(CO)CC23)cc1C(=O)N[C@H]1[C@@H](C(=O)N[C@H](C)C2(C)CC2)[C@H]2CC[C@@H]1/C2=C\CC(O)C(F)(F)F (some centres unmarked) [compound 832]; y
2) COc1ccc(-c2noc(CCO)c2CCO)cc1C(=O)N[C@H]1[C@@H](C(=O)Nc2ccc(F)c(C(F)(F)F)c2)[C@H]2CC[C@@H]1/C2=C\C1CC1; n
3) O=C(N[C@H]1[C@@H](C(=O)Nc2ccc(F)c(C(F)(F)F)c2)[C@H]2CC[C@@H]1/C2=C\C1CC1)c1cc(C2=NOC3CC(CO)CC23)ccc1F (single isomer, unassigned) [compound 692]; n
4) COc1ccc(C2=NOC3COCC23)cc1C(=O)N[C@H]1[C@@H](C(=O)NCc2ccccc2C#N)[C@H]2CC[C@@H]1/C2=C\C1CC1 (some centres unmarked); n
5) COc1ccc(-c2cc([C@H](NC(=O)C3CCOCC3)C(F)(F)F)ccc2F)cc1C(=O)N[C@H]1[C@@H](C(=O)Nc2ccc(F)c(C(F)(F)F)c2)[C@H]2CC[C@@H]1/C2=C\C1CCCC1; y

----------
- system: human RXFP1 (Homo sapiens, UniProt Q9HBX9)
- Construct: expressed in transfected cells
- measurementProtocol: RXFP1 cAMP assay (hRXFP1 HEK293 cAMP assay, HTRF)
- Assay type: cell-based
- conditionsUsed: HEK293 cells stably expressing human RXFP1, 30 min at room temperature, read-out: cAMP hRXFP1 HEK293 Assay EC50
pEC50: −log10 of the molar value.
Overview of reported pEC50 across a group of compounds:
propertyMeasured: pEC50

1. COc1ccc(C2=NC[C@H]3CCCN23)cc1C(=O)N[C@H]1[C@@H](C(=O)Nc2ccc(F)c(C(F)(F)F)c2)[C@H]2CC[C@@H]1/C2=C\C1CC1; 5.99
2. COc1ccc(C2=NOC3COCC23)cc1C(=O)N[C@H]1[C@@H](C(=O)Nc2ccc(F)c(C(F)(F)F)c2)[C@H]2CC[C@@H]1/C2=C\c1cnoc1 (stereo partly shown); 8.52
3. O=C(O)c1ccc(F)c(-c2ccc(OCCN3CCOCC3)c(C(=O)N[C@H]3[C@@H](C(=O)Nc4ccc(F)c(C(F)(F)F)c4)[C@H]4CC[C@@H]3/C4=C\C(F)(F)F)c2)c1; 5.71
4. COc1cc(F)c(C2=NOC3COCC23)cc1C(=O)N[C@H]1[C@@H](C(=O)Nc2ccc(F)c(C(F)(F)F)c2)[C@H]2CC[C@@H]1/C2=C\C1CC1 (single isomer, unassigned) [compound 463]; 8.51
5. COc1ccc(C2=NOC3CC(CO)CC23)cc1C(=O)N[C@H]1[C@@H](C(=O)NC23CC(C)(C2)C3)[C@H]2CC[C@@H]1/C2=C\C1CC1 (stereo partly shown); 8.39
6. COc1ccc(C2CC3CNS(=O)(=O)C32)cc1C(=O)N[C@H]1[C@@H](C(=O)Nc2ccc(F)c(C(F)(F)F)c2)[C@H]2CC[C@@H]1/C2=C\C1CC1 (single isomer, unassigned) [compound 732]; 7.00
7. COc1ccc(-c2cc(C(=O)O)ccc2F)cc1C(=O)N[C@@H]1C2CCC(/C2=C/C2CC2)[C@@H]1C(=O)NC1Cc2ccccc2C1 (stereo partly shown); 5.62
8. COc1ccc(C2=NOC3CC(CO)CC23)cc1C(=O)NC1C2CCC(C2=CC2CC2)C1C(=O)NCC(C)(C)C (stereo not shown); 8.72
9. COc1ccc(C2=NO[C@H]3[C@@H]2CC[C@@H]3O)cc1C(=O)N[C@H]1[C@@H](C(=O)Nc2ccc(F)c(C(F)(F)F)c2)[C@H]2CC[C@@H]1/C2=C\C1CC1 (single isomer, unassigned); 7.17
10. COc1ccc(-c2cc(C(NC(=O)C3CCOCC3)C(=O)O)ccc2F)cc1C(=O)N[C@H]1[C@@H](C(=O)Nc2ccc(F)c(C(F)(F)F)c2)[C@H]2CC[C@@H]1/C2=C\CC(C)C (stereo partly shown); 8.92

----------
- system: human RXFP1 (Homo sapiens, UniProt Q9HBX9)
- Construct: expressed in transfected cells
- Sequence (Q9HBX9 1-757): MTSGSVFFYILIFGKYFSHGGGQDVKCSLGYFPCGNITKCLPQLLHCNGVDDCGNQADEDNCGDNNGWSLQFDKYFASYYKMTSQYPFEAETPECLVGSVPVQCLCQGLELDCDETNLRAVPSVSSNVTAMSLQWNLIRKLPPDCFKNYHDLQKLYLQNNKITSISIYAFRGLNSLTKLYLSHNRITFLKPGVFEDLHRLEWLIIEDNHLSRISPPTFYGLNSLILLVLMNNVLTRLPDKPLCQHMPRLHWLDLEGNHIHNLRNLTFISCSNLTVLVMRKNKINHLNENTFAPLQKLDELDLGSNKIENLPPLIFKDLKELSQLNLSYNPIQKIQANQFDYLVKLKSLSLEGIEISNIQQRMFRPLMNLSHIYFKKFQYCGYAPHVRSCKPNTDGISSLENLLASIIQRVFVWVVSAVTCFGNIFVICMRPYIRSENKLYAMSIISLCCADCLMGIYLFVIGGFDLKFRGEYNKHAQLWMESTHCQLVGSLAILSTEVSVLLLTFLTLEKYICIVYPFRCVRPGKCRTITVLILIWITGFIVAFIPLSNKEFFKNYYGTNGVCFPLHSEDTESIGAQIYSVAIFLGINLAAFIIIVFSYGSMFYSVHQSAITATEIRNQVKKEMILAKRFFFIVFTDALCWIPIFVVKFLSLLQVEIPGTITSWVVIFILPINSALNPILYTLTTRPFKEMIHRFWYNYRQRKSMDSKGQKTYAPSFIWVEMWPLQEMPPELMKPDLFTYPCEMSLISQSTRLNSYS
- measurementProtocol: RXFP1 cAMP assay (hRXFP1 HEK293 cAMP assay, HTRF)
- Format: cell-based
- conditionsUsed: HEK293 cells stably expressing human RXFP1, 30 min at room temperature, read-out: cAMP hRXFP1 HEK293 Assay EC50
pEC50: −log10 of the molar value.
propertyMeasured: pEC50

1) COc1ccc(-c2cc(C(O)C(=O)O)ccc2F)cc1C(=O)NC1C2CCC(/C2=C/C2CC(F)(F)C2)C1C(=O)Nc1ccc(F)c(C(F)(F)F)c1 (stereo not drawn) [compound 353]; 7.96
2) COc1ccc(C2=NOC3C[C@H](O)CC23)cc1C(=O)N[C@@H]1C2CCC(/C2=C/C2CC2)[C@@H]1C(=O)Nc1ccc(F)c(C(F)(F)F)c1 (stereo partly drawn) [compound 407]; 7.68
3) COc1ccc(C2=NOC3CC(CO)CC23)cc1C(=O)N[C@H]1[C@@H](C(=O)Nc2ccc(F)c(C(F)(F)F)c2)[C@H]2CC[C@@H]1C2CC(F)(F)F (stereo partly drawn) [compound 550]; 7.46

----------
- system: human RXFP1 (Homo sapiens, UniProt Q9HBX9)
- Construct: expressed in transfected cells
- measurementProtocol: RXFP1 cAMP assay (hRXFP1 HEK293 cAMP assay, HTRF)
- Type: cell-based
- conditionsUsed: HEK293 cells stably expressing human RXFP1, 30 min at room temperature, read-out: cAMP hRXFP1 HEK293 Assay EC50
EC50 under 30 nM gets criterion met, anything at or over 30 nM gets criterion not met.

1. COc1ccc(C2=NOC3COCC23)cc1C(=O)N[C@H]1[C@@H](C(=O)Nc2ccccc2C)[C@H]2CC[C@@H]1/C2=C\C1CC1 (some centres unmarked); criterion not met
2. COc1cc(F)c(F)cc1C(=O)N[C@@H]1C2CCC(/C2=C/c2ccc(Cl)cc2)[C@@H]1C(=O)Nc1ccc(F)c(C(F)(F)F)c1 (some centres unmarked); criterion not met
3. COc1ccc(C2=NOC3CC(C(O)C(F)(F)F)CC23)cc1C(=O)N[C@H]1[C@@H](C(=O)Nc2ccc(F)c(C(F)(F)F)c2)[C@H]2CC[C@@H]1/C2=C\C1CC1 (single isomer, unassigned) [Example 530]; criterion met
4. COc1ccc(C2=NOC(CC(=O)O)C2)cc1C(=O)N[C@@H]1C2CCC(/C2=C/C(F)(F)F)[C@@H]1C(=O)Nc1ccc(F)c(C(F)(F)F)c1 (some centres unmarked); criterion not met
5. COc1ccc(C2=NOC3CC(CO)CC23)cc1C(=O)N[C@H]1[C@@H](C(=O)Nc2ccc(F)c(C(F)(F)F)c2)[C@H]2CC[C@@H]1/C2=C\C(C)C (some centres unmarked) [compound 450]; criterion met
6. COc1ccc(-c2ccc(C(=O)O)cc2F)cc1C(=O)N[C@H]1[C@@H](C(=O)Nc2ccc(F)c(C(F)(F)F)c2)[C@H]2CC[C@@H]1/C2=C\C1CC(F)(F)C1; criterion met
7. COc1ccc(C2=NOC3COCC23)cc1C(=O)N[C@H]1[C@@H](C(=O)NCC2CC2)[C@H]2CC[C@@H]1/C2=C\C1CC1 (some centres unmarked); criterion not met
8. COc1ccc(-c2cc([C@@H](NC(=O)C3CCOCC3)C(F)(F)F)ccc2F)cc1C(=O)N[C@H]1[C@@H](C(=O)Nc2ccc(F)c(C(F)(F)F)c2)[C@H]2CC[C@@H]1/C2=C\C1CCCC1; criterion met
9. COc1c(F)cc(C2=NOC3CC(CO)CC23)cc1C(=O)N[C@H]1[C@@H](C(=O)N[C@H](C)C2(C)CC2)[C@H]2CC[C@@H]1/C2=C\CC(O)C(F)(F)F (some centres unmarked) [compound 821]; criterion met
10. COc1cc(F)c(F)cc1C(=O)N[C@@H]1C2CCC(/C2=C/c2ccncc2)[C@@H]1C(=O)Nc1ccc(F)c(C(F)(F)F)c1 (some centres unmarked); criterion not met
11. COc1ccc(C2=NOC(CCO)C2)cc1C(=O)N[C@@H]1C2CCC(/C2=C/C2CCC2)[C@@H]1C(=O)Nc1ccc(F)c(C(F)(F)F)c1 (some centres unmarked); criterion not met
